All figures here come from patent US20100267561A1.

Record form. Attribute: Plant response rating, Ducksalad. Fill in for each entry.
Test system: ducksalad (Heteranthera limosa)
methodDescription: Test B flooded paddy test plant response
Type: in vivo
measurementSetup: Flood, 31 g ai/ha; scale 0 to 100
Respond with the number and no other words.

Which Plant response rating, Ducksalad is reported for this molecule? CCc1cc(-c2ccc(Br)cc2)nn1-c1c(O)cnn(C)c1=O
0

Which Plant response rating, Ducksalad is reported for this molecule? Cn1ncc(O)c(-c2nn(-c3ccc(Cl)cc3)cc2Cl)c1=O
0

Which Plant response rating, Ducksalad is reported for this molecule? Cc1nn(C)c(=O)c(-n2nc(-c3ccc(Br)cc3)cc2C)c1O
0

Which Plant response rating, Ducksalad is reported for this molecule? CCc1cc(-c2ccc(Cl)cc2)nn1-c1c(OC(=O)C(C)(C)C)cnn(C)c1=O
0

Which Plant response rating, Ducksalad is reported for this molecule? Cc1cc(-c2ccc(Cl)cc2)nn1-c1c(OC(=S)N(C)C)cnn(C)c1=O
0

Which Plant response rating, Ducksalad is reported for this molecule? Cc1cc(-c2ccc(Cl)cc2)nn1-c1c(OC(=O)c2ccccc2)cnn(C)c1=O
0

###

System: Italian ryegrass (Lolium multiflorum)
methodDescription: Test C pre-/postemergence plant response
Type: in vivo
measurementSetup: Preemergence, 8 g ai/ha; scale 0 to 100 (0 no effect, 100 complete control)
Plant response rating, Ryegrass, Italian strictly less than 30 = Satisfied. Otherwise Not satisfied.

API: query returns whether the compound falls strictly under 30 in Plant response rating, Ryegrass, Italian. Query: Cc1cc(-c2ccc(Cl)cc2)nn1-c1c(OC(=O)c2ccccc2)cnn(C)c1=O
Not satisfied

API: query returns whether the compound falls strictly under 30 in Plant response rating, Ryegrass, Italian. Query: COC(=O)Oc1cnn(C)c(=O)c1-n1nc(-c2ccc(Cl)cc2)cc1C
Satisfied

API: query returns whether the compound falls strictly under 30 in Plant response rating, Ryegrass, Italian. Query: CCc1c(C)c(-c2ccc(Cl)cc2)nn1-c1c(O)cnn(C)c1=O
Satisfied

API: query returns whether the compound falls strictly under 30 in Plant response rating, Ryegrass, Italian. Query: CCc1cc(-c2ccc(Cl)cc2)nn1-c1c(OC(=O)OC(C)C)cnn(C)c1=O
Not satisfied

API: query returns whether the compound falls strictly under 30 in Plant response rating, Ryegrass, Italian. Query: Cc1cc(-c2ccc(Cl)cc2)nn1-c1c(OS(=O)(=O)c2ccccc2[N+](=O)[O-])cnn(C)c1=O
Satisfied

###

Record form. Attribute: Plant response rating, Wheat. Fill in for each entry.
Test system: wheat (Triticum aestivum)
methodDescription: Test B pre-/postemergence plant response
Assay type: in vivo
measurementSetup: Postemergence, 62 g ai/ha; scale 0 to 100, 0 no effect, 100 complete control
From the text: […] Plant species in the flooded paddy test consisted of rice (Oryza sativa), umbrella sedge (Cyperus difformis), ducksalad (Heteranthera limosa) and barnyardgrass (Echinochloa crus-galli) grown to the 2-leaf stage for testing. […] Treated plants and controls were maintained in a greenhouse for 13 to 15 days, after which time all species were compared to controls and visually evaluated. […]

Which Plant response rating, Wheat is reported for this compound? CCc1cc(-c2ccc(Br)cc2)nn1-c1c(O)cnn(C)c1=O
100

Which Plant response rating, Wheat is reported for this compound? COC(=O)Oc1cnn(C)c(=O)c1-n1nc(-c2ccc(Cl)cc2)cc1C
98

Which Plant response rating, Wheat is reported for this compound? CCc1cc(-c2ccc(Cl)cc2)nn1-c1c(OC(=O)OC(C)C)cnn(C)c1=O
85

Which Plant response rating, Wheat is reported for this compound? Cn1ncc(O)c(-c2nn(-c3ccc(Cl)cc3)cc2Cl)c1=O
90
